experiment: Oral exposure (pharmacokinetics) in rats; assay type: in vivo, male Sprague Dawley rats; conditions: male, Sprague Dawley, rat, plasma, po, 20 mg/kg, PO 20 mg/kg (free base equivalent), mean ± SD, n = 3, read-out: Tmax
OBSERVABLE: Tmax

What measured Tmax goes with COc1cc(C2CCN(C)CC2)ccc1Nc1ncc(C(F)(F)F)c(CCc2ccccc2CC(N)=O)n1 [Free base] ? 5 to 7 h

* * *

assay: Oral exposure (pharmacokinetics) in rats; format: in vivo, male Sprague Dawley rats; conditions: PO 20 mg/kg (free base equivalent), rat, mean ± SD, n = 3; listed as L-Tartrate salt, 20 mg/kg; read-out: Plasma Cmax
OBSERVABLE: Cmax
Please state the value followed by its unit.

What measured Cmax goes with COc1cc(C2CCN(C)CC2)ccc1Nc1ncc(C(F)(F)F)c(CCc2ccccc2CC(N)=O)n1 [L-Tartrate] ? 1.2 µM

* * *

test: Oral exposure (pharmacokinetics) in rats; format: in vivo, male Sprague Dawley rats; conditions: male, Sprague Dawley, rat, plasma, po, 20 mg/kg, PO 20 mg/kg (free base equivalent), mean ± SD, n = 3, read-out: Apparent t1/2 (converted)
OBSERVABLE: half-life (h)
Kindly provide the numeric value in h only, without the unit symbol.

What measured half-life goes with COc1cc(C2CCN(C)CC2)ccc1Nc1ncc(C(F)(F)F)c(CCc2ccccc2CC(N)=O)n1 [Free base] ? 5.6

* * *

experiment: Thermodynamic solubility studies; assay type: physicochemical; conditions: buffer, 22 °C, pH 6.8, aqueous buffer, thermodynamic from solid, pH 6.8
OBSERVABLE: solubility thermodynamic at 24 h

What measured solubility thermodynamic at 24 h goes with COc1cc(C2CCN(C)CC2)ccc1Nc1ncc(C(F)(F)F)c(CCc2ccccc2CC(N)=O)n1 [Free base] ? < 100 µg/mL

* * *

assay: Thermodynamic solubility studies; assay type: physicochemical; conditions: buffer, 22 °C, pH 1, simulated gastric fluid, thermodynamic from solid, pH 1.0
OBSERVABLE: solubility thermodynamic at 24 h (µg/mL)
Kindly provide the numeric value in µg/mL only, without the unit symbol.

What measured solubility thermodynamic at 24 h goes with COc1cc(C2CCN(C)CC2)ccc1Nc1ncc(C(F)(F)F)c(CCc2ccccc2CC(N)=O)n1 [Free base] ? 300

* * *

assay: Oral exposure (pharmacokinetics) in rats; assay type: in vivo, male Sprague Dawley rats; conditions: male, Sprague Dawley, rat, plasma, po, 20 mg/kg, PO 20 mg/kg (free base equivalent), mean ± SD, n = 3
OBSERVABLE: Cmax (nM)
Kindly provide the numeric value in nM only, without the unit symbol.

What measured Cmax goes with COc1cc(C2CCN(C)CC2)ccc1Nc1ncc(C(F)(F)F)c(CCc2ccccc2CC(N)=O)n1 [Free base] ? 934

Source of measurements: patent US12466807B2
